Target: calcium channel (guinea-pig isolated ileal longitudinal smooth muscle) (Cavia porcellus, UniProt O35505)
Construct: The longitudinal smooth muscle is carefully separated from the underlying circular muscle layer; from tissue; host or cells: guinea-pig ileal longitudinal smooth muscle
Sequence (O35505 whole entry): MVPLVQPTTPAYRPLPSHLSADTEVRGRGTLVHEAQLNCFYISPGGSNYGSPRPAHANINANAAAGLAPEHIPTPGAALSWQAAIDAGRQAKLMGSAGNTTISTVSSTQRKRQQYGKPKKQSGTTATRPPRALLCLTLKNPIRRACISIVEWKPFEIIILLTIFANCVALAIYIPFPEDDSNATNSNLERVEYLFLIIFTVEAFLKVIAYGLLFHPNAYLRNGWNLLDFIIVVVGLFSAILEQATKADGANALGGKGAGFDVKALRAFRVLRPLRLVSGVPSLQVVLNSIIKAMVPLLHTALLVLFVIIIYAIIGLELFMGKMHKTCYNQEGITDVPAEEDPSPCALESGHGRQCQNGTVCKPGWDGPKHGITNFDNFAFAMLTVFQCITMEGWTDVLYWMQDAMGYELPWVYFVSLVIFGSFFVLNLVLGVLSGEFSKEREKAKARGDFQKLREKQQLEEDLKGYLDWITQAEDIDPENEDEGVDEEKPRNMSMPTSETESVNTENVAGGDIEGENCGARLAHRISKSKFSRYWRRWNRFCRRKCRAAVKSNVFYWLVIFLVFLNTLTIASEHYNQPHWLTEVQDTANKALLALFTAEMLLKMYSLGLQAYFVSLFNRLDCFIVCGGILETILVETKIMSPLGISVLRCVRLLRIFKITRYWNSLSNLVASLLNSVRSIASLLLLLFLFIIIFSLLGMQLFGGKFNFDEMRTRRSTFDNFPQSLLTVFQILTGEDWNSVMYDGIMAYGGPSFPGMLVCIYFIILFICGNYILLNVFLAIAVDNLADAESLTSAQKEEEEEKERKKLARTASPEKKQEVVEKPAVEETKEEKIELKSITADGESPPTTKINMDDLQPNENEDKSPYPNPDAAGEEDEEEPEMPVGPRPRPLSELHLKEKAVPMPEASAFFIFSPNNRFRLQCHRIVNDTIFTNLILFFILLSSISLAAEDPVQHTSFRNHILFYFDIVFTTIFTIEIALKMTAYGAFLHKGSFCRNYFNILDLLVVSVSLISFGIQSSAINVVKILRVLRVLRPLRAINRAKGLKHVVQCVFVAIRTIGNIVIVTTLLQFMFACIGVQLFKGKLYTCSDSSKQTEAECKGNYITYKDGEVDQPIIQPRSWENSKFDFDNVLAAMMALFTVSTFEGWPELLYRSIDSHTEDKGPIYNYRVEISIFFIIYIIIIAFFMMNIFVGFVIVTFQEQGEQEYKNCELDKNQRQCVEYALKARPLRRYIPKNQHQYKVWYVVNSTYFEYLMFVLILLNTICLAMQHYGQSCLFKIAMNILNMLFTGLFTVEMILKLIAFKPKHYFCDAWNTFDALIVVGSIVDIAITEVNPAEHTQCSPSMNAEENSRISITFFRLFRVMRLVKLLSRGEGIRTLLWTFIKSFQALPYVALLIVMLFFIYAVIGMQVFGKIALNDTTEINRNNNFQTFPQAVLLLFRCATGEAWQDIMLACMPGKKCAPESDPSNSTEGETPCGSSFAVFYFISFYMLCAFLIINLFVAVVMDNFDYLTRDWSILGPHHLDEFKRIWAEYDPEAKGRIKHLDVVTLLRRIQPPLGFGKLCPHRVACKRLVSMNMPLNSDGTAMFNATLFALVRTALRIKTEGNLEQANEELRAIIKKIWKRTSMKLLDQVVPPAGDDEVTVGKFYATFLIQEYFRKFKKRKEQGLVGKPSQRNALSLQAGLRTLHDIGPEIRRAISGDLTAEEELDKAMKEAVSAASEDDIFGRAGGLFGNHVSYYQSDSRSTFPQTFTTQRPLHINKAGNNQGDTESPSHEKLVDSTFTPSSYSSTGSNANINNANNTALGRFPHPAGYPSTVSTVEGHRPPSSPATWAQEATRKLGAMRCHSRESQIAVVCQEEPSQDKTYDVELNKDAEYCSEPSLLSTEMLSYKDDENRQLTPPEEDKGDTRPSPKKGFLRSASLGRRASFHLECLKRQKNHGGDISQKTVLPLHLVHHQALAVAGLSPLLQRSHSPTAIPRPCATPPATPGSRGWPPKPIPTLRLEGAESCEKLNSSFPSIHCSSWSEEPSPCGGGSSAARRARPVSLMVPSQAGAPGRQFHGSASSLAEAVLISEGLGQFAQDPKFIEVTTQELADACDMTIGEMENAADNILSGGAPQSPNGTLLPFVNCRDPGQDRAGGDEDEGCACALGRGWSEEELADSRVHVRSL
Assay: Calcium Channel Antagonist Activity in Guinea-Pig Isolated Ileal Smooth Muscle
Assay type: cell-based
Settings: Kb = concentration producing a two-fold dextral shift in the control CaCl2 concentration-response curve; KCl (80 mM) depolarized ileal smooth muscle; read-out: Calcium antagonist Kb
parameter: Kb (nM)

molecule: CN(CC#CCCC1(C2(O)c3ccccc3Oc3ccccc32)SCCCS1)CCCc1ccccc1
result-value: 3090
--
molecule: CN1CCN(CC#CCCC2(C3(O)c4ccccc4Oc4ccccc43)SCCCS2)CC1 [Dioxalate]
result-value: 488
--
molecule: CCCN(CC#CCCCC1(C2(O)c3ccccc3Oc3ccccc32)SCCCS1)CCC
result-value: 470
--
molecule: CN(CC#CCCC1(C2(O)c3ccccc3Sc3ccccc32)SCCCS1)CCCc1ccccc1
result-value: 4160
--
molecule: CCN(CC)CC#CCCC1(C2(O)c3ccccc3-c3ccccc32)SCCCS1
result-value: 500

* * *

Target: calcium channel (guinea-pig isolated ileal longitudinal smooth muscle) (Cavia porcellus)
Construct: The longitudinal smooth muscle is carefully separated from the underlying circular muscle layer; from tissue; host or cells: guinea-pig ileal longitudinal smooth muscle
Test: Calcium Channel Antagonist Activity in Guinea-Pig Isolated Ileal Smooth Muscle
Assay type: cell-based
Conditions: Kb = concentration producing a two-fold dextral shift in the control CaCl2 concentration-response curve; KCl (80 mM) depolarized ileal smooth muscle; read-out: Calcium antagonist Kb
We label by threshold. Values of Kb strictly beneath 2000 nM are Condition met. Values of 2000 nM and up are Condition not met.

molecule: CCN(CC)CC#CCCC(O)(c1ccccc1)C1SCCCS1 (stereo not shown) [oxalate]
subject-of-test: calcium channel (guinea-pig isolated ileal longitudinal smooth muscle) (Cavia porcellus)
group: Condition not met

molecule: CN(C)CC#CCCC1SCCCS1 [Oxalate]
subject-of-test: calcium channel (guinea-pig isolated ileal longitudinal smooth muscle) (Cavia porcellus)
group: Condition not met

molecule: COc1ccc(CCN(C)CC#CCCC2SCCCS2)cc1OC [Oxalate]
subject-of-test: calcium channel (guinea-pig isolated ileal longitudinal smooth muscle) (Cavia porcellus)
group: Condition not met

molecule: CCN(CC)CC#CCCC1(C(O)(c2ccccc2)C2CCCCC2)SCCCS1 (stereo not shown)
subject-of-test: calcium channel (guinea-pig isolated ileal longitudinal smooth muscle) (Cavia porcellus)
group: Condition met

molecule: CCN(C)CC#CCCC1(C2(O)c3ccccc3Sc3ccc(Cl)cc32)SCCCS1 (stereo not shown)
subject-of-test: calcium channel (guinea-pig isolated ileal longitudinal smooth muscle) (Cavia porcellus)
group: Condition not met

molecule: COc1ccc(CCN(C)CC#CCCC(O)(c2ccccc2)C2SCCCS2)cc1OC (stereo not shown)
subject-of-test: calcium channel (guinea-pig isolated ileal longitudinal smooth muscle) (Cavia porcellus)
group: Condition met

molecule: CN(CC#CCCC1(C(O)(c2ccccc2)C2CCCCC2)SCCCS1)CCc1ccccc1 (stereo not shown) [Oxalate]
subject-of-test: calcium channel (guinea-pig isolated ileal longitudinal smooth muscle) (Cavia porcellus)
group: Condition not met

molecule: CN(CC#CCCCC1SCCCS1)CCc1ccccc1 [Oxalate]
subject-of-test: calcium channel (guinea-pig isolated ileal longitudinal smooth muscle) (Cavia porcellus)
group: Condition not met

molecule: OC1(C2(CCC#CCN3CCCCC3)SCCCS2)c2ccccc2Oc2ccccc21
subject-of-test: calcium channel (guinea-pig isolated ileal longitudinal smooth muscle) (Cavia porcellus)
group: Condition met

molecule: CCN(CC)CC#CCCC1(C2(O)c3ccccc3Sc3ccccc32)SCCCS1 [Oxalate]
subject-of-test: calcium channel (guinea-pig isolated ileal longitudinal smooth muscle) (Cavia porcellus)
group: Condition met

* * *

Molecular target: calcium channel (guinea-pig isolated ileal longitudinal smooth muscle) (Cavia porcellus, UniProt O35505)
Construct: The longitudinal smooth muscle is carefully separated from the underlying circular muscle layer; from tissue; host or cells: guinea-pig ileal longitudinal smooth muscle
Experiment: Calcium Channel Antagonist Activity in Guinea-Pig Isolated Ileal Smooth Muscle
Assay type: cell-based
Conditions: Kb = concentration producing a two-fold dextral shift in the control CaCl2 concentration-response curve; KCl (80 mM) depolarized ileal smooth muscle; read-out: Calcium antagonist Kb
parameter: log10 Kb (log10 of the value in nM)

compound: CN(CC#CCCC1SCCCS1)Cc1ccccc1
log10 Kb: 3.90
--
compound: CCN(CC)CC#CCCC1(C2(O)c3ccccc3Sc3ccc(Cl)cc32)SCCCS1 (stereo not shown) [Oxalate]
log10 Kb: 2.52
--
compound: CCCN(CC#CCCCC1(C2(O)c3ccccc3-c3ccccc32)SCCCS1)CCC
log10 Kb: 2.75
--
compound: CCN(CC)CC#CCCC1(C2(O)CCOc3ccccc32)SCCCS1 (stereo not shown)
log10 Kb: 3.29
--
compound: CN(CC#CCCC(O)(c1ccccc1)C1SCCCS1)CCc1ccccc1 (stereo not shown) [oxalate hemihydrate]
log10 Kb: 3.35
--
compound: CCCN(CC#CCCCC1(C2(O)c3ccccc3Sc3ccccc32)SCCCS1)CCC
log10 Kb: 2.89
--
compound: CCN(CC)CC#CCCC1(C(c2ccccc2)c2ccccc2)SCCCS1 [Oxalate Hydrate]
log10 Kb: 2.70
--
compound: CN(CC#CCCC1SCCCS1)CCc1ccccc1 [Oxalate]
log10 Kb: 3.36

* * *

Molecular target: calcium channel (guinea-pig isolated ileal longitudinal smooth muscle) (Cavia porcellus)
Construct: The longitudinal smooth muscle is carefully separated from the underlying circular muscle layer; from tissue; host or cells: guinea-pig ileal longitudinal smooth muscle
Experiment: Calcium Channel Antagonist Activity in Guinea-Pig Isolated Ileal Smooth Muscle
Type: cell-based
Details: Kb = concentration producing a two-fold dextral shift in the control CaCl2 concentration-response curve; KCl (80 mM) depolarized ileal smooth muscle; read-out: Calcium antagonist Kb

compound: CCN(CC)CC#CCCC1(C(C)(O)c2ccccc2)SCCCS1 (stereo not shown)
Kb: 2510 nM

compound: CN(C)CC#CCCC1(C2(O)c3ccccc3Oc3ccccc32)SCCCS1
Kb: 1150 nM

compound: CCN(CC)CC#CCCCC1(C2(O)c3ccccc3-c3ccccc32)SCCCS1
Kb: 810 nM

compound: OC1(C2(CCC#CCN3CCCCC3)SCCCS2)c2ccccc2Sc2ccccc21
Kb: 3660 nM

* * *

Target: calcium channel (guinea-pig isolated ileal longitudinal smooth muscle) (Cavia porcellus, UniProt O35505)
Construct: The longitudinal smooth muscle is carefully separated from the underlying circular muscle layer; from tissue; host or cells: guinea-pig ileal longitudinal smooth muscle
Assay: Calcium Channel Antagonist Activity in Guinea-Pig Isolated Ileal Smooth Muscle
Assay type: cell-based
Conditions: Kb = concentration producing a two-fold dextral shift in the control CaCl2 concentration-response curve; KCl (80 mM) depolarized ileal smooth muscle; read-out: Calcium antagonist Kb
Text: Calcium Channel Antagonist Activity in Guinea-Pig Isolated Ileal Smooth Muscle. Male albino guinea-pigs are sacrificed by stunning and exsanguination. The abdominal cavity is opened and the small intestine is removed, with about 10 cm of the terminal ileum being discarded. The tissue is placed in a dish containing Tyrode's solution (composition, mM: […]; KCl 2.68; NaHCO3 11.90; NaH2 PO4 0.36; MgCl2 0.98; CaCl2 1.77; dextrose 5.55), and cut into three to four segments. […]
Recorded Kb, one value per entry.

compound: CN(CC#CCCC1SCCCS1)Cc1ccc2ccccc2c1 [Oxalate]
Kb: 8.33 µM
--
compound: C(#CCN1CCCCC1)CCC1SCCCS1 [Oxalate]
Kb: > 10 µM
--
compound: CN(CC#CCCC1SCCCS1)CCCCc1ccccc1 [Oxalate]
Kb: 3.43 µM
--
compound: OCCN1CCN(CC#CCCC2SCCCS2)CC1 [Dioxalate]
Kb: > 10 µM
--
compound: CCN(C)CC#CCCC1(C2(O)c3ccccc3Oc3ccccc32)SCCCS1
Kb: 1.51 µM
--
compound: CCN(CC)CC#CCCC1(C2(O)CCCc3ccccc32)SCCCS1 (stereo not drawn)
Kb: 0.83 µM

* * *

Kb values for the compounds below.
Molecular target: calcium channel (guinea-pig isolated ileal longitudinal smooth muscle) (Cavia porcellus)
Construct: The longitudinal smooth muscle is carefully separated from the underlying circular muscle layer; from tissue; host or cells: guinea-pig ileal longitudinal smooth muscle
Test: Calcium Channel Antagonist Activity in Guinea-Pig Isolated Ileal Smooth Muscle
Assay type: cell-based
Details: Kb = concentration producing a two-fold dextral shift in the control CaCl2 concentration-response curve; KCl (80 mM) depolarized ileal smooth muscle; read-out: Calcium antagonist Kb
parameter: Kb (nM)

compound: CN(C)CC#CCCC1(C2(O)c3ccccc3Sc3ccc(Cl)cc32)SCCCS1 (stereo not drawn)
value-comparator: =
result-value: 2330
//
compound: CN(CC#CCCC1(c2ccccc2)SCCCS1)CCc1ccccc1 [Oxalate]
value-comparator: =
result-value: 1740
//
compound: OC1(C2(CCC#CCN3CCCCC3)SCCCS2)c2ccccc2-c2ccccc21
value-comparator: =
result-value: 1000
//
compound: CCN(CC)CC#CCCC1(c2ccccc2)SCCCS1 [Oxalate]
value-comparator: =
result-value: 900
//
compound: CCN(CC)CC#CCCC1(Cc2ccccc2)SCCCS1 [Oxalate]
value-comparator: =
result-value: 1960
//
compound: CCN(CC)CC#CCCCC1(C2(O)c3ccccc3Oc3ccccc32)SCCCS1
value-comparator: =
result-value: 170
//
compound: CN(CC#CCCC1(C(O)(c2ccccc2)c2ccccc2)SCCCS1)CCCc1ccccc1
value-comparator: =
result-value: 1630
//
compound: CN(C)CC#CCCC1(C2(O)c3ccccc3-c3ccccc32)SCCCS1
value-comparator: =
result-value: 1810
//
compound: CCN(C)CC#CCCC1(C2(O)c3ccccc3Sc3ccccc32)SCCCS1
value-comparator: =
result-value: 570
//
compound: CCN(CC)CC#CCCCC1SCCCS1 [Oxalate]
value-comparator: >
result-value: 10000
//
compound: CCN(CC)CC#CCC1(c2ccccc2)SCCCS1 [oxalate]
value-comparator: =
result-value: 4270
//
compound: CN(CC#CCCC1(C(O)(c2ccccc2)c2ccccc2)SCCCS1)CCc1ccccc1 [Oxalate Hemihydrate]
value-comparator: =
result-value: 2650
//
compound: C(#CCN1CCCC1)CCC1SCCCS1 [Oxalate]
value-comparator: >
result-value: 10000
//
compound: CCN(CC)CC#CCCC1(C(O)(c2ccccc2)C2CCCC2)SCCCS1 (stereo not drawn)
value-comparator: =
result-value: 500
//
compound: CN(CC#CCCC1SCCCS1)Cc1cccc2ccccc12 [Oxalate]
value-comparator: >
result-value: 10000
//
compound: CCCN(CC#CCC1(c2ccccc2)SCCCS1)CCC [Oxalate]
value-comparator: =
result-value: 1010
//
compound: CN(CC#CCCC1(C(O)(c2ccccc2)c2ccccc2)SCCCS1)Cc1ccccc1 [Oxalate Hemihydrate]
value-comparator: =
result-value: 3170
//
compound: CCN(CC)CC#CCCC1(C(O)(c2ccccc2)c2ccccc2)SCCCS1 [Oxalate]
value-comparator: =
result-value: 980
//
compound: CN(CC#CCCC1SCCCS1)CCCc1ccccc1 [Oxalate]
value-comparator: =
result-value: 2980
//
compound: COc1ccc(CCN(C)CC#CCCC(O[Si](C)(C)C)(c2ccccc2)C2SCCCS2)cc1OC (stereo not drawn)
value-comparator: =
result-value: 570
//
compound: COc1ccc(CCN(C)CC#CCC2(c3ccccc3)SCCCS2)cc1OC [oxalate]
value-comparator: =
result-value: 1170
